molecular target: DR1 (DRB1*0101) (Homo sapiens, UniProt P01903+P01911, A100R/D57E/F55L/F60I/F76Y/I96L/L162R/M171V/P40L/Q125E/R42F/V115G/Y59C); assay: biochemical; assay type: binding
pIC50: −log10 of the molar value. No end group written: not given here.
MEASURE: pIC50

>  <SEQ TEXT>
KIFGSLAVLPESFDGDPA [Peptide 9014.0251]

>  <MEASURE>
pIC50

>  <LIMIT OPERATOR>
=

>  <ASSAY VALUE>
6.64

$$$$
>  <SEQ TEXT>
KTLIKPATLYAHIQC [Peptide 89.0083]

>  <MEASURE>
pIC50

>  <LIMIT OPERATOR>
=

>  <ASSAY VALUE>
7.22

$$$$
>  <SEQ TEXT>
DMKLRLNASPETHLD [Peptide 9014.0120]

>  <MEASURE>
pIC50

>  <LIMIT OPERATOR>
=

>  <ASSAY VALUE>
6.04

$$$$
>  <SEQ TEXT>
DSQIAFQYAQLADVD [Peptide 89.0130]

>  <MEASURE>
pIC50

>  <LIMIT OPERATOR>
<

>  <ASSAY VALUE>
4.70

$$$$
>  <SEQ TEXT>
DSEIAYKYAQLADTN [Peptide 89.0012]

>  <MEASURE>
pIC50

>  <LIMIT OPERATOR>
=

>  <ASSAY VALUE>
6.13

$$$$
>  <SEQ TEXT>
TYISTSQRDDFLNTV [Peptide 1601.27]

>  <MEASURE>
pIC50

>  <LIMIT OPERATOR>
<

>  <ASSAY VALUE>
4.70

$$$$
>  <SEQ TEXT>
IKFFQGSVISFVNSQ [Peptide 89.0136]

>  <MEASURE>
pIC50

>  <LIMIT OPERATOR>
<

>  <ASSAY VALUE>
4.70

$$$$
>  <SEQ TEXT>
LLEFIDDSMENSIQA [Peptide 90.0077]

>  <MEASURE>
pIC50

>  <LIMIT OPERATOR>
=

>  <ASSAY VALUE>
6.30

$$$$
>  <SEQ TEXT>
DYVLDLQPEATDLHC [Peptide 1543.10]

>  <MEASURE>
pIC50

>  <LIMIT OPERATOR>
=

>  <ASSAY VALUE>
5.30

$$$$
>  <SEQ TEXT>
KLFGSLAFLPESFDGDPA [Peptide 9014.0234]

>  <MEASURE>
pIC50

>  <LIMIT OPERATOR>
=

>  <ASSAY VALUE>
6.10

$$$$
>  <SEQ TEXT>
QQLLQVQTAHADKQT [Peptide 89.0115]

>  <MEASURE>
pIC50

>  <LIMIT OPERATOR>
=

>  <ASSAY VALUE>
5.95

$$$$
>  <SEQ TEXT>
ETEFVEPLTPSGAMP [Peptide 9014.0142]

>  <MEASURE>
pIC50

>  <LIMIT OPERATOR>
=

>  <ASSAY VALUE>
7.60

$$$$
>  <SEQ TEXT>
KFFGSLAFLPESFDGDPA [Peptide 9014.0231]

>  <MEASURE>
pIC50

>  <LIMIT OPERATOR>
=

>  <ASSAY VALUE>
6.65

$$$$
>  <SEQ TEXT>
FQVIELQMALETLNA [Peptide 90.0025]

>  <MEASURE>
pIC50

>  <LIMIT OPERATOR>
=

>  <ASSAY VALUE>
7.70

$$$$
>  <SEQ TEXT>
KIFGSLAHLPESFDGDPA [Peptide 9014.0247]

>  <MEASURE>
pIC50

>  <LIMIT OPERATOR>
=

>  <ASSAY VALUE>
6.02

$$$$
>  <SEQ TEXT>
LSQRLNVCQDKILEH [Peptide 1601.21]

>  <MEASURE>
pIC50

>  <LIMIT OPERATOR>
<

>  <ASSAY VALUE>
4.70

$$$$
>  <SEQ TEXT>
LKSFLKGTPKKNCLV [Peptide 89.0035]

>  <MEASURE>
pIC50

>  <LIMIT OPERATOR>
=

>  <ASSAY VALUE>
7.52

$$$$
>  <SEQ TEXT>
PTGCLKKHGYTVEVQ [Peptide 1601.23]

>  <MEASURE>
pIC50

>  <LIMIT OPERATOR>
=

>  <ASSAY VALUE>
4.75

$$$$
>  <SEQ TEXT>
NKALQAIELQLTLET [Peptide 89.0151]

>  <MEASURE>
pIC50

>  <LIMIT OPERATOR>
=

>  <ASSAY VALUE>
7.10

$$$$
>  <SEQ TEXT>
RHLDKKQRFHNIRGR [Peptide 1543.26]

>  <MEASURE>
pIC50

>  <LIMIT OPERATOR>
=

>  <ASSAY VALUE>
6.25

$$$$
>  <SEQ TEXT>
WCIIGMGVTPSVAEG [Peptide 89.0097]

>  <MEASURE>
pIC50

>  <LIMIT OPERATOR>
<

>  <ASSAY VALUE>
4.70

$$$$
>  <SEQ TEXT>
TPEWIEQQTVLQHSF [Peptide 89.0104]

>  <MEASURE>
pIC50

>  <LIMIT OPERATOR>
=

>  <ASSAY VALUE>
6.02

$$$$
>  <SEQ TEXT>
LIKFFQGSVISFVNS [Peptide 89.0135]

>  <MEASURE>
pIC50

>  <LIMIT OPERATOR>
<

>  <ASSAY VALUE>
4.70

$$$$
>  <SEQ TEXT>
RLNVCQDKILTHYEN [Peptide 90.0160]

>  <MEASURE>
pIC50

>  <LIMIT OPERATOR>
=

>  <ASSAY VALUE>
8.57

$$$$
>  <SEQ TEXT>
ITDFGLARALDIDET [Peptide 9014.0183]

>  <MEASURE>
pIC50

>  <LIMIT OPERATOR>
=

>  <ASSAY VALUE>
7.60

$$$$
>  <SEQ TEXT>
RKTIAKALSSILNVP [Peptide 89.0123]

>  <MEASURE>
pIC50

>  <LIMIT OPERATOR>
<

>  <ASSAY VALUE>
4.70

$$$$
